tested on: PC-3 prostate; assay: NCI-60 one-dose screen, 48 h (100 = growth as untreated, 0 = no growth, -100 = all killed); conditions: 10 µM unless noted
This is part of a sample that, as a whole, favours compounds with a hit. Of some 83,000 tested, about 20% had one in any assay.
// classify(record): look up growth in ranges one (below 50%), two (50% to below 90%), three (90% or more)

Input COc1ccc(/C=C/C(=O)c2cc(S(N)(=O)=O)c(OC)cc2OC)cc1 ; output its category
one

Bin? CCc1cccc2c3c(sc12)C(c1ccc(OC)cc1)C(C#N)=C(/N=C/c1ccc(Cl)cc1)O3 (stereo unspecified)
one

Class for O=C(Cn1cc(-c2ccccc2)nn1)Nc1nc(-c2ccc(Cl)cc2)cs1 ?
three

Class label required: CC1=NC2=NC(=O)/C(=C3/N=C(C)C=C(c4ccccc4)N3N)NN2C(c2ccccc2)=C1
three

Assign a bin to O=S(=O)(NCCNc1nccc(-n2cnc3ccccc32)n1)c1ccc(C(F)(F)F)cc1
one

Assign a bin to CCC1=Cc2cc(OC)ccc2OC12C=Cc1cc(OC)ccc1O2 (stereo unspecified)
one

State the class of the compound shown: COc1ccc(/C=C/C(=O)c2cccc(NC(=O)CSc3nc4ccccc4c(=O)n3-c3ccccc3)c2)cc1OC
three

Looking at CC1(C)[C@@H](O)CC[C@]2(C)[C@H]3CC[C@@H]4[C@H]5[C@H](C(=O)/C=C\c6ccncc6)CC[C@]5(O)CC[C@@]4(C)[C@]3(C)CC[C@@H]12 , which class would you pick?
two

Consider O=C1[C@H]2Cc3c([nH]c4ccccc34)[C@@H](c3ccc(Br)cc3)N2C(=O)CN1C1CCN(CC2CCCCC2)CC1 . To which growth class does it belong?
one

Quick check: band for Cc1ccc(-n2cc(/C=N/NC(=O)c3ccncc3)c(-c3ccc(S(C)(=O)=O)cc3)n2)cc1
two

Which bin, given its growth, does Clc1nc2ccccc2nc1-c1nnc(C2CCCCC2)o1 occupy?
three

GET /class?item= CCOC(=O)c1c(Nc2ccccc2)nn2c(-c3cccs3)ccnc12
two

Could you place COc1cc2nc(Cl)nc(Nc3cccc(C4=Nc5c(N)nc(N)nc5NC(c5ccc(F)cc5)C4)c3)c2cc1OC (stereo unspecified) in its proper category? Many thanks.
two

Consider N#Cc1c(-c2cccs2)cc(-c2cnccn2)nc1SCC(=O)Nc1ccc(Br)cc1 . To which growth class does it belong?
two

Kindly state the category for this compound: Nc1ncc(-c2ccc(NS(=O)(=O)c3ccc(Cl)c(Cl)c3)cc2)[nH]1
two

Class (by measured growth) for CCc1cccc(NC(=O)CNc2cc(S(=O)(=O)N(C)C)cc(C)c2C)c1
two

# bin label for CCN(CC)CCn1c2ccc(O)cc2c2sc3cc(OC)ccc3c(=O)c21
one

Determine which band this compound sits in: CCCCNNC(=O)c1ccc(-c2cccc(F)c2F)cc1
one

Into which category would you place O=C1CC(=O)N2CSCN(C(c3ccccc3)c3nc4ncncc4[nH]3)C2=N1 (stereo unspecified) ?
three

Pick a category. Item: Oc1ccc(CSc2nnc(-c3ccc(Cl)cc3)n2-c2ccccc2)c2cccnc12
one

Class? Entry: CC1(C)[C@@H](O)CC[C@]2(C)[C@H]3CC[C@@H]4[C@H]5[C@H](C(=O)/C=C\c6ccc([N+](=O)[O-])cc6)CC[C@]5(O)CC[C@@]4(C)[C@]3(C)CC[C@@H]12
one

Lab note: which band did CCCCCc1ccc(S(=O)(=O)Nc2cccc(-c3csc(NC(=O)CN4CCN(C)CC4)n3)c2)cc1 land in?
two

Looking at Cn1ccnc1C(=O)/C=C/c1ccc(CNC(=O)c2ccc(S(F)(F)(F)(F)F)cc2)cc1 , which class would you pick?
one

Please indicate the class for CCOc1cccc(-c2nc3sccn3c2-c2ccnc(S(C)(=O)=O)n2)c1 based on its growth.
three

Band for the recorded growth of CC1(C)[C@@H](O)CC[C@]2(C)[C@H]3CC[C@@H]4[C@H]5[C@H](C(=O)/C=C\c6ccccn6)CC[C@]5(O)CC[C@@]4(C)[C@]3(C)CC[C@@H]12 ?
one

For CN(C)CCCOc1ccc2c(c1)CN(C(=O)c1cc(C(=O)N3Cc4cccc(F)c4C3)ccc1O)C2 , which growth bin applies?
three

Returns: class label. Input: CCO/C=N/C1=C(C#N)C(c2ccc(OC)cc2)c2sc3c(C)cccc3c2O1 (stereo unspecified)
one

# bin lookup: classify COc1cccc(/C=C(/C)c2ccc3cccc(OC)c3[o+]2)c1O by its growth
two

Please indicate the class for COc1ccc(COc2ccc(/C=C3\C(=O)Nc4ccccc43)cc2OC)cc1 based on its growth.
three

Textbook exercise: identify the category of the compound given here, COc1ccccc1N1CCN(C2=CC(=O)C(C)=C(C)C2=O)CC1 , according to its measured value.
three

Band of O=S(=O)(Nc1ccc(I)cc1Cl)c1ccc(-c2cnc(C3CC3)o2)cc1 ?
one

Exam item: assign COc1cc(C2N=C(NNc3ccccc3)NC(C)=C2C(C)=O)ccc1O (stereo unspecified) to the correct category.
two

Exercise: read the entry COC(=O)C(Cc1ccccc1)Nc1nc(NC(Cc2ccccc2)C(=O)OC)nc(N2CCOCC2)n1 (stereo unspecified) and state which class it falls under.
three

Hello team, could you let me know which band the following compound falls into: C[C@@H](Nc1ncnc2ccc(-c3cnc(Cl)c(NS(C)(=O)=O)c3)cc12)c1ccccc1
one

* * *

test system: 786-0 renal; assay: NCI-60 one-dose screen, 48 h; settings: 10 µM unless noted
Compounds without any hit were thinned out: in the full panel of roughly 83,000, 20% have a hit. Calls of active or inactive are those of the source. Rule for the calls: active = growth percent below 10; inactive = the rest.
Just give me one of these, please: Y (active), N (inactive)

What was the test verdict on Cn1cc(-c2nc(N)nnc2-c2c[nH]c3ccccc23)c2cc(Br)ccc21 ?
N

Tell me the recorded outcome of this test for Cc1nc2ncc(-c3ccc4ncnc(NCc5ccccc5)c4c3)cc2[nH]1 .
N

So what was the verdict on NS(=O)(=O)c1ccc(Nc2nc(N/N=C/c3ccccn3)nc(Nc3ccccc3)n2)cc1 in this test?
Y

Please indicate how the test categorized CS(=O)(=O)c1ccc(-c2nn(-c3ccccc3)cc2/C=N/NC(=O)c2nc(N)n[nH]2)cc1 .
N

// outcome(item) with item = CC(C)(C)CC(C)(C)n1nnnc1C(Nc1nccs1)c1cc2cccc3ccc4cccc1c4c32 (centres undefined)
N

Record request — test call for COc1ccc(/C=N/NC(=O)c2cn(C3CC3)c3c(OC)c(N4CC5CCCNC5C4)c(F)cc3c2=O)cc1 (centres undefined)
N

Would you mind telling me which call this test gave NC(N)=Nc1ccc(Oc2cccc(NC(N)=Nc3ccc(Cl)c(C(F)(F)F)c3)c2)cc1 ?
N

I'd appreciate the recorded outcome for COc1cc(OC)c(S(N)(=O)=O)cc1C(=O)/C=C/c1ccc(Cl)cc1 from this test.
N

Entry CN1CCN(Cc2ccc(NC(=O)c3cncc(C#Cc4cnc5ccc(N6CCN(C)CC6)nn45)c3)cc2C(F)(F)F)CC1 : call = ?
Y

* * *

I'd appreciate it if you could supply growth values for the items below.
system: T-47D breast; test: NCI-60 one-dose screen, 48 h (100 = growth as untreated, 0 = no growth, -100 = all killed); conditions: 10 µM unless noted
This is part of a sample that, as a whole, favours compounds with a hit. Of some 83,000 tested, about 20% had one in any assay.
// note: answer is a bare numeric in %

compound O=C(O)c1cn(C2CC2)c2cc(N3CCN(C(=O)CN4C(=O)CSC4=O)CC3)c(F)cc2c1=O , growth observed: 106

The measured growth associated with O=C(NNc1nc2cc(F)ccc2n2c(CN3CCCC3)ccc12)c1cnccn1 reads 15.4

response.value for CCOC(=O)c1c(NC(=O)c2ccccc2C(F)(F)F)sc2c1CCC(=O)C2 (field: growth) = 15

In plain terms, CS(=O)(=O)Nc1cc(-c2ccc3ncc(C#N)c(N[C@H](CO)c4ccccc4)c3c2)cnc1Cl has a documented growth of 28.3

Sure, the documented growth for COc1cc(C2N=C(NNc3ccccc3)NC(C)=C2C(C)=O)ccc1O (stereo not given) is 83.9

// growth lookup, compound = CC(C)(O)c1cncc(-c2ccc3ncnc(NCc4ccccc4)c3c2)c1 , result: 64.2

The recorded growth for CNC(=O)c1c(NC(=O)c2ccccc2C(F)(F)F)sc2c1CCC(=O)C2 is 9.8

Sure, the documented growth for NC(=O)c1cccc(C#CCNC[C@H]2C[C@@H](n3ccc4c(Cl)ncnc43)[C@H](O)[C@@H]2O)c1 is 96.6

# compound C[C@@H]1C[C@H]2C(=O)O[C@@H](C)C(NC(=O)[C@H](Cc3cc(F)cc(F)c3)NC(=O)Nc3ccc(C4CC4)cc3F)C(=O)N3CCC[C@H]3C(=O)N3CCCC[C@H]3C(=O)N[C@@H](CO)C(=O)N2C1 (stereo not given in full) ; its growth = 21.7

Entry COc1ccc(N2C(=O)c3cc(Cl)ccc3NC2SCc2ccccc2)cc1 (stereo not given) , growth reported as 88.1

Form: compound = c1cn2c(ccc3nc(-c4cn[nH]c4)c4c(c32)CCCC4)n1 ; growth = 45.4

Recorded growth (compound O=C(NNc1nc2cc(F)c(F)cc2n2c(CN3CC4CNCC4C3)ccc12)c1ncccn1 (stereo not given) ): 13.8

Value of measured growth for the entry Nc1nc(-c2cccc([N+](=O)[O-])c2)c(N=Nc2cccc([N+](=O)[O-])c2)s1 : 31

Consider Cc1cc(C)c(N2C(=O)CC(Nc3ccc(Cl)cc3Cl)C2=O)c(C)c1 (stereo not given) . Its measured growth is 93.7

Recorded result, C#C[C@]1(O)CC[C@H]2[C@@H]3CC=C4c5sc(-c6cccc(O)c6)nc5CC[C@]4(C)[C@H]3CC[C@@]21C , growth: 1.25
